- Test system: p38-gamma
- Construct: gene MAPK12
- measurement-context: concentration: 1 μM, replicates: in singlicate; n = 1;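 further: KINOMEscan kinase panel screen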
Under this convention, Condition met denotes %Inh strictly below 30% and Condition not met denotes %Inh at or above 30%.

These solved cases illustrate the format of a correct answer.
Cn1cc(-c2[nH]c3cc(NC(=O)[C@H](N)C4CCCCC4)cc4c3c2C=NNC4=O)cn1; Condition met
O=C(Nc1cccc(Oc2ccc3nc(NC(=O)C4CC4)cn3n2)c1)c1ccccc1C(F)(F)F; Condition not met
Cc1ccc(C(=O)N2CC[C@@H](O)C2)cc1-n1c(C)cc(OCc2ccc(F)cc2F)c(Br)c1=O; Condition met
C[C@@H](Oc1cc(-n2cnc3cc(-c4ccnc(NCCS(C)(=O)=O)c4)ccc32)sc1C(N)=O)c1ccccc1Cl; Condition met
Cc1occc1-c1ncc(OC[C@@H](N)Cc2c[nH]c3ccccc23)cc1-c1ccc2[nH]nc(C)c2c1.O=C(O)C(F)(F)F; Condition not met

With those in mind, consider the next compound.
**Q:** Record `Nc1ncc(-c2ccc3nccc(-c4ccncc4)c3c2)cc1S(=O)(=O)N1CCOCC1` : is its %Inh strictly below 30%?
**A:** Condition met

====

- Tested on: BRAF
- measurement-context: concentration: 1 μM, replicates: in singlicate; n = 1
Answer each item with its documented %Inh.
One number for each entry, in %.

Some solved entries appear below for comparison.
Cl.c1ccc(-c2ccc3c(Nc4ccc5[nH]ccc5c4)ccnc3c2)nc1 [GW440138]; 0
Cc1ccc(C(=O)Nc2ccc(Nc3ccnc4cc(-c5nccs5)ccc34)cc2O)cc1.Cl [GW494702]; 1
Cc1ccc(C)c(NC(=O)NC2CCN(c3ccnc(Nc4ccc(F)cc4)n3)C2)c1 (stereo not shown) [GSK1379720]; 0
Nc1n[nH]c2cnc(-c3ccccc3)cc12 [SB-642124]; 7
CC(=O)N1CCN(c2ccc(Nc3nccc(-c4sc(C(C)C)nc4-c4cccc(NS(=O)(=O)c5cccc(Cl)c5)c4)n3)cn2)CC1 [GSK1660437]; 99.3

Below are 2 molecules. Give each one its %Inh.
1. Cc1cccc(NC(=O)Nc2ccc(Oc3ncnc4ccn(C)c34)cc2)c1
2. CCCCc1nn2ncccc2c1-c1ccnc(Nc2ccc(N3CCN(C)CC3)cc2)n1 [GW684941]

**A:**
1. 0
2. 86

Value sought for every listed molecule: %Inh.
1. Cc1occc1-c1ncc(OC[C@@H](N)Cc2c[nH]c3ccccc23)cc1-c1ccc2[nH]nc(C)c2c1.O=C(O)C(F)(F)F [GSK682037]
2. COc1cc2c(cc1OCCN1CCNCC1)ncc1c3ccc(C#N)cc3[nH]c21
3. c1ccc(Oc2ccc(Nc3ccnc4cc(-c5ccc(CNCCN6CCOCC6)o5)ccc34)cc2)nc1 [GW567145]

**A:**
[0, 28, 0]

====

- System: PAK1
- measurement-context: concentration: 1 μM, replicates: in singlicate; n = 1
Binary classification by %Inh, with 4% as an inclusive lower bound for MET; all other cases are NOT MET.

Sample answers from the record:
Nc1ncc(-c2ccc3nccc(-c4ccncc4)c3c2)cc1S(=O)(=O)N1CCOCC1 [GSK1627798]; MET
O=C(Nc1n[nH]c2nc(-c3ccc(O)cc3)ccc12)C1CC1 [SB-710363]; NOT MET
O=C(Nc1cccc(-c2nn3ccccc3c2-c2ccnc(Nc3cccc(F)c3)n2)c1)c1c(F)ccc(F)c1Cl [GSK357952]; NOT MET
COc1cc(Nc2nccc(-c3c(-c4cccc(NC(=O)c5c(F)cccc5F)c4)nn4ncccc34)n2)cc(OC)c1OC [GSK327238]; MET

**Q:** Reported %Inh at or above 4%? Cc1occc1-c1ncc(OC[C@@H](N)Cc2c[nH]c3ccccc23)cc1-c1ccc2[nH]nc(C)c2c1.O=C(O)C(F)(F)F [GSK682037]
**A:** MET

**Q:** Could you verify whether the entry CN1CCN(Cc2cccc(-c3ccc4c(Nc5ccc(Oc6ccccc6)cc5)ccnc4c3)c2)CC1 [GW578342] shows %Inh of no less than 4%?
**A:** MET

**Q:** Say whether Cl.NC(=O)c1cccc(Nc2nccc(Nc3ccc(Oc4c(Cl)cccc4Cl)c(Cl)c3)n2)c1 [GW659009] shows %Inh of 4% or more.
**A:** MET

**Q:** Exam item: decide whether the reported %Inh for O=c1[nH]cc(-c2ccc(N3CCOCC3)cc2)c2sc(-c3cn[nH]c3)cc12 [GSK2276055] is at least 4%.
**A:** MET

**Q:** Entry COc1cccc(-c2ccc3c(NC(=O)C4CC4)n[nH]c3n2)c1 [SB-710903] : is its %Inh no less than 4%?
**A:** NOT MET

====

- Tested on: NIK
- Construct: gene MAP3K14
- measurement-context: concentration: 1 μM, replicates: in singlicate; n = 1
Response field label takes MET when %Inh is strictly below 20% and NOT MET in all other cases.

**Q:** %Inh strictly < 20% for this molecule? `CN1CCN(CCCNc2nccc(-c3c(-c4ccc(F)cc4)nn4cc(C(F)(F)F)ccc34)n2)CC1`
**A:** MET

**Q:** I'd appreciate it if you could check whether `COc1cc(Nc2ncc3c(C)nc(-c4cc5ccccc5[nH]4)n3n2)cc(OC)c1OC` has %Inh smaller than 20%.
**A:** MET

====

- Tested on: PDPK1
- measurement-context: concentration: 1 μM, replicates: in singlicate; n = 1
Give %Inh for every item shown.
One number for each entry, in %.

Below: 2 compounds and their reported %Inh.
O=C(Nc1n[nH]c2nc(-c3ccc(O)cc3)ccc12)C1CC1; 5
Cc1cccc(Nc2nc(N[C@H]3CCNC3)ncc2C(N)=O)c1.Cl; 7

Batch request: %Inh per item, same order as input.
1. c1ccc(Oc2ccc(Nc3ccnc4cc(-c5ccc(CNCCN6CCOCC6)o5)ccc34)cc2)nc1
2. Nc1ncc(-c2cccnc2)c2scc(-c3ccc4c(c3)CCN4C(=O)Cc3ccccc3)c12
3. Cn1cc(-c2ccc3c(c2)CCN3C(=O)Cc2cccc(Cl)c2)c2c(N)ncnc21

**A:**
[0, 21, 40]

====

- System: PIP5K1A
- measurement-context: concentration: 1 μM, replicates: in singlicate; n = 1
readout-label: %Inh (%)
Answers are plain numbers, in %.

Consider the reported %Inh for these molecules:
CN(C)Cc1ccc(-c2ccc3c(Nc4ccc(Oc5ccccn5)cc4)ccnc3c2)o1; 33
Cn1cc(-c2ccc3c(c2)CCN3C(=O)Cc2cccc(Cl)c2)c2c(N)ncnc21; 0
COc1cccc(-c2ccc3c(NC(=O)C4CC4)n[nH]c3n2)c1; 58
c1ccc(-c2n[nH]cc2Nc2ccnc3ccccc23)nc1; 10

**Q:** // returns reported %Inh for input `CN(c1ccc(NC(=O)Nc2cc(C(F)(F)F)ccc2F)cc1)c1ccnc(Nc2ccc(S(N)(=O)=O)cc2)n1`
**A:** 10

====

- Tested on: CIT
- measurement-context: concentration: 1 μM, replicates: in singlicate; n = 1
# label = 1.0 if %Inh < 60% else 0.0

Known results for compounds:
COc1cc(Nc2nccc(N3CCC(NC(=O)c4cc5ccccc5s4)C3)n2)cc(OC)c1OC (centres unmarked); 1.0
Cc1cccc(NC(=O)Nc2ccc(Oc3ncnc4ccn(C)c34)cc2)c1; 1.0
COc1cc(Nc2nccc(-c3c(-c4cccc(NC(=O)c5c(F)cccc5F)c4)nn4ncccc34)n2)cc(OC)c1OC; 0.0

**Q:** Does `O=C(Nc1ccccc1F)NC1CCN(c2ccnc(Nc3ccc(F)cc3)n2)CC1` have %Inh strictly under 60%?
**A:** 1.0

**Q:** Please indicate whether the reported %Inh of `CCCCc1nn2ncccc2c1-c1ccnc(Nc2ccc(N3CCN(C)CC3)cc2)n1` is strictly below 60%.
**A:** 1.0

====

- Test system: INSRR
- measurement-context: concentration: 1 μM, replicates: in singlicate; n = 1
For each of the compounds below, state its %Inh.
One number for each entry, in %.

COc1ccc(CNC(=O)NC2CCN(c3ccnc(Nc4ccc(F)cc4)n3)CC2)cc1 [GSK1379788]; 0
COc1cc2c(cc1OCCN1CCNCC1)ncc1c3ccc(C#N)cc3[nH]c21; 3

Moving on to another compound below.
**Q:** Sample c1ccc(-c2cnc3nccnn23)cc1 [AH20685] — what was its %Inh?
**A:** 0

====

I'd be grateful if you could share measured %Inh for these entries.
- Test system: HIPK2
- measurement-context: concentration: 1 μM, replicates: in singlicate; n = 1
Numbers only, in %.

Solved cases below.
c1ccc(-c2n[nH]cc2Nc2ccnc3ccccc23)nc1; 98.6
Cn1cc(-c2ccc3c(c2)CCN3C(=O)Cc2cccc(F)c2)c2c(N)ncnc21; 0
COc1ccc(CNC(=O)NC2CCN(c3ccnc(Nc4ccc(F)cc4)n3)CC2)cc1; 0

Respectfully, I request %Inh for each entry included below.
1. COc1ccc(Nc2nccc(NCCNC(=O)c3cc4ccccc4s3)n2)cc1
2. O=C(NC1CCN(c2ccnc(Nc3ccc(F)cc3)n2)C1)c1cc2ccccc2s1 (centres unmarked)

**A:**
1. 0
2. 0
